Subject Of Test: T1, Human ST2 (human, UniProt Q01638 19-328, limits assumed)
T1 construct: also called human ST2 protein; Interleukin 1 receptor-like 1
T1 sequence (looked up): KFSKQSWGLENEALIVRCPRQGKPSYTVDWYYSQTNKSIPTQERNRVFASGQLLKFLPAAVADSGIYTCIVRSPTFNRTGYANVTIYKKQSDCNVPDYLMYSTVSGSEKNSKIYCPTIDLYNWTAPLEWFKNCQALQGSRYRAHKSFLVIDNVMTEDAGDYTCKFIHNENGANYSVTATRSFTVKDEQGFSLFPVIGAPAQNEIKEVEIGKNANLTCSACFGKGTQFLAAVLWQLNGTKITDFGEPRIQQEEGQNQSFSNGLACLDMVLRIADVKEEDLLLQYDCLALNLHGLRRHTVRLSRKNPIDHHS
Experimental Protocol: SPR (Carterra), antibody immobilized, ST2 analyte
Readout Type: kon (M⁻¹ s⁻¹)
Record the value in M⁻¹ s⁻¹, omitting the unit from your answer.

Q) Return kon for the following binder: Human ST2 IgG1 Antibody 61 (antibody, V domains shown, IgG1; also called ST2 Antibody 61) VH: QVQLVQSGAEVKKPGSSVKVSCKASGGTFSNYAISWVRQAPGQGLEWMGGIIPVFGTATYAQKFQGRVTITADESTSTAYMELSSLRSEDTAVYYCARVTAMGVGWYFDLWGRGTLVTVSS VL: DIVMTQSPLSLPVTPGEPASISCRSSQSLLHSNGYNYLDWYLQKPGQSPQLLIYAASSLQSGVPDRFSGSGSGTDFTLKISRVEAEDVGVYYCMQSLQTPPTFGQGTKLEIKR
A) 260000

Q) Query kon for Human ST2 IgG1 Antibody 98 (antibody, V domains shown, IgG1; also called ST2 Antibody 98) VH: EVQLLESGGGLVKPGGSLRLSCAASGFTFSSYWMSWVRQAPGKGLEWVSAISGTAINTYYADSVKGRFTISRDDSKNTLYLQMNSLKTEDTAVYYCARVRRDSSGGGAFDIWGQGTMVTVSS VL: DIQMTQSPSSLSASVGDRVTITCRASQGISNNLNWYQQKPGKAPKLLIYAASSLQTGVPSRFSGSGSGTDFTLTISSLQPEDFATYYCQQSYSTPPTFGQGTKVEIKR
A) 270000

Q) Fill in kon for record Human ST2 IgG1 Antibody 58 (antibody, V domains shown, IgG1; also called ST2 Antibody 58) VH: EVQLLESGAEVKKPGSSVKVSCKASGGTFSSYAISWVRQAPGQGLEWMGGIIPIFGTANYAQKFQGRVTITADKSTSTAYMELSSLRSEDTAVYYCARPRLAVAGGWYFDLWGRGTLVTVSS VL: DIQMTQSPSSLSASVGDRVTITCQASQDISNYLNWYQQKPGKAPKLLIYAASSLQSGVPSRFSGSGSGTDFTLTISSLQPEDFATYYCQQSFSSTPTFGQGTKLEIKR
A) 220000

Where do the numbers come from? From patent US20210403579A1.
